Listing of entries alongside the reported Bliss excess.
# System: GA-10 (Burkitt's Lymphoma);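 further: after 72 h of two-drug dosing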
# assay-summary: Bliss excess, mean over the matrix (fraction); higher = more synergy

[
  {
    "compound": "CC1(C)CCC(CN2CCN(c3ccc(C(=O)NS(=O)(=O)c4ccc(NCC5CCOCC5)c([N+](=O)[O-])c4)c(Oc4cnc5[nH]ccc5c4)c3)CC2)=C(c2ccc(Cl)cc2)C1 [Venetoclax] + COc1cc(Nc2ncc3c(n2)-c2ccc(Cl)cc2C(c2c(F)cccc2OC)=NC3)ccc1C(=O)O [Alisertib] (first compound max 1 µM, 7x7, partner max 10 µM)",
    "Bliss excess": 0.0181
  },
  {
    "compound": "CN(CCO)CC[C@H](CSc1ccccc1)Nc1ccc(S(=O)(=O)NC(=O)c2ccc(N3CCC([C@@H](O)c4ccccc4-c4ccc(Cl)cc4)CC3)cc2)cc1S(=O)(=O)C(F)(F)F [AZD4320] + C1CN(CCC1(C(=O)N[C@@H](CCO)C2=CC=C(C=C2)Cl)N)C3=NC=NC4=C3C=CN4 [Capivasertib] (first compound max 1 µM, 7x7, partner max 3 µM)",
    "Bliss excess": -0.0283
  }
]
